# assay_summary: Small Molecules that selectively kill Giardia lamblia: qHTS;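 also: parasites exposed to compound for two days anaerobically before the ATP read; % is scaled to controls: 0 for no effect and ±100 for the full control effect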
# conditions: Giardia lamblia trophozoite viability; at 7.66 µM; active compounds read low
Hit rate of the full screen: of about 340,000 compounds, about 530 (0.16%) were called active. About 2% were inconclusive and are not listed. The full list was thinned out, with actives kept by preference.
measured_attribute: activity change (%)
Note: unit % is implicit; provide only the numeric part.

Example compounds with recorded activity change:
[[record]]
compound = "CC(C)=CCN1CCN(CCCc2ccccc2)CC1CCO (stereo not drawn)"
endpoint_unit = "%"
measured = 23.8

[[record]]
compound = "O=[N+]([O-])c1ccc(C=Nc2ccc(Cl)cc2Cl)s1"
endpoint_unit = "%"
measured = 12

[[record]]
compound = "O=C(c1ccco1)N(Cc1cccs1)c1ccc(O)cc1"
endpoint_unit = "%"
measured = -7.42

[[record]]
compound = "C=CCOc1ccc(/C=C/C(=O)OCC(=O)NC(C)c2ccc(F)cc2)cc1 (stereo not drawn)"
endpoint_unit = "%"
measured = -21.6

[[record]]
compound = "COc1cccc(C(=O)c2sc3nc(-c4ccccc4)cc(C(F)(F)F)c3c2N)c1"
endpoint_unit = "%"
measured = 4.39


Problem: Fill in: activity change of `CNC(=O)[C@]1(C(F)(F)F)C[C@H](CCc2ccccc2)CCCO1` is ___
Result: -0.81

Problem: Any idea what its activity change is? The compound is `COC(=O)CCc1ccccc1S(=O)(=O)N(CCC(=O)OC)Cc1ccccc1`
Result: 9.42

Problem: Value lookup for activity change; key = CC1C/C(=N/NC(=O)c2cccs2)CC(C)(C)C1 (stereo not drawn)
Result: 4.93
